pKi: −log10 of the molar value.
A short record of pKi observed with Transporter (Rattus norvegicus) follows.
Sequence (Q63380 whole entry): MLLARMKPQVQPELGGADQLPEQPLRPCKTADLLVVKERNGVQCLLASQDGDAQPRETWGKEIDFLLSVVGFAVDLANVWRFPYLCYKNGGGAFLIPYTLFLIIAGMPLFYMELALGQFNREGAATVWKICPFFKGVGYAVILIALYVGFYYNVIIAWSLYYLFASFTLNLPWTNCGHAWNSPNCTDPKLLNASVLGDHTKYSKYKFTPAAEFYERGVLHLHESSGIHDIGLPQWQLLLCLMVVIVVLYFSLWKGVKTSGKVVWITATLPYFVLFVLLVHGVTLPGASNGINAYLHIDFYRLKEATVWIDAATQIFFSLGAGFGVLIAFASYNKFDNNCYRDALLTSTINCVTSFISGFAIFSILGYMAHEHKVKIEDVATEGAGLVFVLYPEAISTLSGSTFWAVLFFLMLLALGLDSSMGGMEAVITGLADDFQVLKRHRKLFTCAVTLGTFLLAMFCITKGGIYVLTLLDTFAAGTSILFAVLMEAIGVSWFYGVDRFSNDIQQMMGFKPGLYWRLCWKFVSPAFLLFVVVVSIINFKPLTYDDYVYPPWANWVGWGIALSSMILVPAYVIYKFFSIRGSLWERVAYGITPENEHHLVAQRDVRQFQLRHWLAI
Observation Type: pKi

>  <Molecule>
CC(=O)OC(CCN1CCN(CCCN(c2ccc(F)cc2)c2ccc(F)cc2)CC1)c1ccccc1 (centres undefined)

>  <Inequality Sign>
=

>  <Observed>
6.00

$$$$
>  <Molecule>
C=CC(=O)O[C@@H](Cc1ccccc1)CN1CCN(CCCN(c2ccc(F)cc2)c2ccc(F)cc2)CC1

>  <Inequality Sign>
=

>  <Observed>
6.09

$$$$
>  <Molecule>
O[C@H](Cc1ccccc1)CN1CCN(CCCN(c2ccc(F)cc2)c2ccc(F)cc2)CC1

>  <Inequality Sign>
=

>  <Observed>
5.68

$$$$
>  <Molecule>
O=C(Cc1ccccc1)OC(CCN1CCN(CCCN(c2ccc(F)cc2)c2ccc(F)cc2)CC1)c1ccccc1 (centres undefined)

>  <Inequality Sign>
=

>  <Observed>
5.56

$$$$
>  <Molecule>
O[C@@H](Cc1ccccc1)CN1CCN(CCCN(c2ccc(F)cc2)c2ccc(F)cc2)CC1

>  <Inequality Sign>
=

>  <Observed>
6.12

$$$$
>  <Molecule>
O=C(Cc1ccccc1)O[C@@H](Cc1ccccc1)CN1CCN(CCCN(c2ccc(F)cc2)c2ccc(F)cc2)CC1

>  <Inequality Sign>
=

>  <Observed>
5.77

$$$$
>  <Molecule>
C=CC(=O)OC(CCN1CCN(CCCN(c2ccc(F)cc2)c2ccc(F)cc2)CC1)c1ccccc1 (centres undefined)

>  <Inequality Sign>
=

>  <Observed>
5.71

$$$$
>  <Molecule>
O=C(CCCc1ccccc1)OC(CCN1CCN(CCCN(c2ccc(F)cc2)c2ccc(F)cc2)CC1)c1ccccc1 (centres undefined)

>  <Inequality Sign>
<

>  <Observed>
5.00

$$$$
>  <Molecule>
CCC(=O)OC(CCN1CCN(CCCN(c2ccc(F)cc2)c2ccc(F)cc2)CC1)c1ccccc1 (centres undefined)

>  <Inequality Sign>
=

>  <Observed>
5.82

$$$$
